Conditions: in 2-methoxyethanol, 318.15 K
Metric: solubility (mole fraction)

Tell us which solubility (mole fraction) value is on record for CS(=O)(=O)OCCCCOS(C)(=O)=O
0.0085

###

Conditions: in 2-methoxyethanol, 298.15 K
Metric: solubility (mole fraction)
Would you mind answering with just the numeric figure?

Provide measured solubility (mole fraction) value, entry: CS(=O)(=O)OCCCCOS(C)(=O)=O
0.0022

###

Details: in n-butanol, 318.15 K
Metric: solubility (mole fraction)
Simply state the number, no unit and no words.

Quick one: give measured solubility (mole fraction) for CS(=O)(=O)OCCCCOS(C)(=O)=O
0.000191

###

Conditions: in n-butyl acetate, 318.15 K
Metric: solubility (mole fraction)

Please look at this compound and report its solubility (mole fraction): CS(=O)(=O)OCCCCOS(C)(=O)=O
0.00218

###

Settings: in ethyl acetate, 283.15 K
Metric: solubility (mole fraction)
Please give the numeric answer without any surrounding text.

Fill in reported solubility (mole fraction) for this entry: CS(=O)(=O)OCCCCOS(C)(=O)=O
0.000575

###

Settings: in 2-ethoxyethanol, 283.15 K
Metric: solubility (mole fraction)
Answer field: number only, no words.

Look up and report measured solubility (mole fraction) for this entry: CS(=O)(=O)OCCCCOS(C)(=O)=O
0.000255

###

Conditions: in methyl acetate, 303.15 K
Metric: solubility (mole fraction)
Number only, no unit.

Supply recorded solubility (mole fraction) for CS(=O)(=O)OCCCCOS(C)(=O)=O here.
0.0045

###

Details: in ethanol, 313.15 K
Metric: solubility (mole fraction)
Lab note: write the figure by itself, no unit.

Report measured solubility (mole fraction); entry is CS(=O)(=O)OCCCCOS(C)(=O)=O
0.000315

###

Conditions: in NMP, 313.15 K
Metric: solubility (mole fraction)
In your answer, state the number alone without any accompanying words.

Read the entry CS(=O)(=O)OCCCCOS(C)(=O)=O and write its reported solubility (mole fraction).
0.0713

###

Details: in ethyl acetate, 323.15 K
Metric: solubility (mole fraction)
Provide a numeric answer; units are not to be included.

Answer with reported solubility (mole fraction) of CS(=O)(=O)OCCCCOS(C)(=O)=O
0.00705

###

Conditions: in 2-methoxyethanol, 288.15 K
Metric: solubility (mole fraction)

Read the entry CS(=O)(=O)OCCCCOS(C)(=O)=O and write its reported solubility (mole fraction).
0.00104

###

Conditions: in n-butyl acetate, 303.15 K
Metric: solubility (mole fraction)

Kindly indicate its recorded solubility (mole fraction). Item: CS(=O)(=O)OCCCCOS(C)(=O)=O
0.000962

###

Conditions: in DMF, 318.15 K
Metric: solubility (mole fraction)
Just the number.

Give me measured solubility (mole fraction), please, for this compound: CS(=O)(=O)OCCCCOS(C)(=O)=O
0.076

###

Conditions: in 2-propoxyethanol, 313.15 K
Metric: solubility (mole fraction)

Please supply the value of reported solubility (mole fraction) for the item CS(=O)(=O)OCCCCOS(C)(=O)=O
0.00118

###

Conditions: in DMF, 293.15 K
Metric: solubility (mole fraction)
A bare number is all that is needed in reply.

Supply solubility (mole fraction) value. Item: CS(=O)(=O)OCCCCOS(C)(=O)=O
0.0248

###

Details: in 2-propoxyethanol, 293.15 K
Metric: solubility (mole fraction)
I'd appreciate a reply containing only the number, no unit.

Give the value of solubility (mole fraction) reported for the following: CS(=O)(=O)OCCCCOS(C)(=O)=O
0.000398
